Origin of values: patent US7196192B2

Assignment: determine reported pEC50 for the given compounds.
# subject of test: transcriptional switch components containing FKBP and 2098L mutant FRB domains (Homo sapiens, UniProt P42345+P62942)
# Construct: transcriptional switchcomponents containing FKBP and 2098L mutant FRB domains, respectively; fused on or other part: The two switch components are separate chimeric proteins; Neither is given for this cell line
# assay explanation: transcription assay in engineered HD1080 cells expressing SEAP (txn 2098L)
# Type: cell-based
# condition notes: HD1080 cells, FKBP and 2098L mutant FRB switch, SEAP reporter; read-out: txn 2098L EC50
pEC50 is a log-scale quantity: -log10 of the concentration expressed in molar.

Task item: So what does the record say about pEC50 for CO[C@H]1C[C@@H]2CC[C@@H](C)[C@@](O)(O2)C(=O)C(=O)N2CCCC[C@H]2C(=O)O[C@H]([C@H](C)C[C@@H]2CC[C@@H](OCc3ccccc3)[C@H](OC)C2)CC(=O)[C@H](C)/C=C(\C)[C@H](O)[C@@H](OC)C(=O)[C@H](C)C[C@H](C)/C=C/C=C/C=C/1C [43-O-benzyl-28-epirapamycin] ?
Reply: 7.92

Task item: So what does the record say about pEC50 for C=CCO[C@@H]1CC[C@@H](C[C@@H](C)[C@@H]2CC(=O)[C@H](C)/C=C(\C)[C@H](O)[C@@H](OC)C(=O)[C@H](C)C[C@H](C)/C=C/C=C/C=C(\C)[C@@H](OC)C[C@@H]3CC[C@@H](C)[C@@](O)(O3)C(=O)C(=O)N3CCCC[C@H]3C(=O)O2)C[C@H]1OC [43-O-allyl-28-epirapamycin] ?
Reply: 8.10

Task item: So what does the record say about pEC50 for COCO[C@@H]1CC[C@@H](C[C@@H](C)[C@@H]2CC(=O)[C@H](C)/C=C(\C)[C@H](O)[C@@H](OC)C(=O)[C@H](C)C[C@H](C)/C=C/C=C/C=C(\C)[C@@H](OC)C[C@@H]3CC[C@@H](C)[C@@](O)(O3)C(=O)C(=O)N3CCCC[C@H]3C(=O)O2)C[C@H]1OC [43-O-MOM-28-epirapamycin] ?
Reply: 8.15

Task item: So what does the record say about pEC50 for CO[C@H]1C[C@@H]2CC[C@@H](C)[C@@](O)(O2)C(=O)C(=O)N2CCCC[C@H]2C(=O)O[C@H]([C@H](C)C[C@@H]2CC[C@@H](OC)[C@H](OC)C2)CC(=O)[C@H](C)/C=C(\C)[C@H](O)[C@@H](OC)C(=O)[C@H](C)C[C@H](C)/C=C/C=C/C=C/1C [43-O-methyl-28-epirapamycin] ?
Reply: 8.52

---

# subject of test: FKBP (Homo sapiens, UniProt P62942)
# Sequence (P62942 whole entry): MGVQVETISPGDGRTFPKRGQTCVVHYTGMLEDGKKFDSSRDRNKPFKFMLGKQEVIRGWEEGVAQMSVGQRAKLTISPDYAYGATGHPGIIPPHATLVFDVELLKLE
# assay explanation: FKBP competitive binding assay based on fluorescence polarization (FP)
# condition notes: competitive FP binding, methods of Example 2.5; read-out: FKBP IC50
Assignment: determine reported IC50 for the given compounds.
Respond with the bare value in nM.

Task item: So what does the record say about IC50 for COC1CC(CC(C)C2CC(=O)C(C)C=C(C)C(O)C(OC)C(=O)C(C)CC(C)C=CC=CC=C(C)C(NC(=O)OCc3ccccc3)CC3CCC(C)C(O)(O3)C(=O)C(=O)N3CCCCC3C(=O)O2)CCC1O (stereo not drawn) [28-epi-7R-benzylcarbamate] ?
Reply: 12

Task item: So what does the record say about IC50 for COC1CC(CC(C)C2CC(=O)C(C)C=C(C)C(O)C(OC)C(=O)C(C)CC(C)C=CC=CC=C(C)C(NS(=O)(=O)N(C)C)CC3CCC(C)C(O)(O3)C(=O)C(=O)N3CCCCC3C(=O)O2)CCC1O (stereo not drawn) [28-epi-7R-dimethylsulfamide] ?
Reply: 29

Task item: So what does the record say about IC50 for CO[C@@H]1C[C@H](C[C@@H](C)[C@@H]2CC(=O)[C@H](C)/C=C(\C)[C@H](O)[C@@H](OC)C(=O)[C@H](C)C[C@H](C)/C=C/C=C/C=C(\C)[C@@H](Oc3ccccc3)C[C@@H]3CC[C@@H](C)[C@@](O)(O3)C(=O)C(=O)N3CCCC[C@H]3C(=O)O2)CC[C@H]1O [28-epi-7S-phenyloxy] ?
Reply: 36

Task item: So what does the record say about IC50 for CCCCS(=O)(=O)N[C@H]1C[C@@H]2CC[C@@H](C)[C@@](O)(O2)C(=O)C(=O)N2CCCC[C@H]2C(=O)O[C@H]([C@H](C)C[C@@H]2CC[C@@H](O)[C@H](OC)C2)CC(=O)[C@H](C)/C=C(\C)[C@H](O)[C@@H](OC)C(=O)[C@H](C)C[C@H](C)/C=C/C=C/C=C/1C [28-epi-7S-butanesulfonamide] ?
Reply: 9.2

---

# subject of test: FKBP (Homo sapiens)
# assay explanation: FKBP competitive binding assay based on fluorescence polarization (FP)
# condition notes: competitive FP binding, methods of Example 2.5; read-out: FKBP IC50
measurement name: pIC50
pIC50 is a log-scale quantity: -log10 of the concentration expressed in molar.

Task item: So what does the record say about pIC50 for CO[C@@H]1C[C@H](C[C@@H](C)[C@@H]2CC(=O)[C@H](C)/C=C(\C)[C@H](O)[C@@H](OC)C(=O)[C@H](C)C[C@H](C)/C=C/C=C/C=C(\C)[C@@H](NS(=O)(=O)N(C)c3ccccc3)C[C@@H]3CC[C@@H](C)[C@@](O)(O3)C(=O)C(=O)N3CCCC[C@H]3C(=O)O2)CC[C@H]1O [28-epi-7S-methylphenylsulfamide] ?
Reply: 7.96

Task item: So what does the record say about pIC50 for CO[C@@H]1C[C@H](C[C@@H](C)[C@@H]2CC(=O)[C@H](C)/C=C(\C)[C@H](O)[C@@H](OC)C(=O)[C@H](C)C[C@H](C)/C=C/C=C/C=C(\C)[C@@H](NS(C)(=O)=O)C[C@@H]3CC[C@@H](C)[C@@](O)(O3)C(=O)C(=O)N3CCCC[C@H]3C(=O)O2)CC[C@H]1O [28-epi-7S-methanesulfonamide] ?
Reply: 7.80

Task item: So what does the record say about pIC50 for COC1CC(CC(C)C2CC(=O)C(C)C=C(C)C(O)C(OC)C(=O)C(C)CC(C)C=CC=CC=C(C)C(OCc3ccccc3)CC3CCC(C)C(O)(O3)C(=O)C(=O)N3CCCCC3C(=O)O2)CCC1O (single isomer, unassigned) [28-epi-7S-benzyloxy] ?
Reply: 7.15

Task item: So what does the record say about pIC50 for CCCCS(=O)(=O)N[C@@H]1C[C@@H]2CC[C@@H](C)[C@@](O)(O2)C(=O)C(=O)N2CCCC[C@H]2C(=O)O[C@H]([C@H](C)C[C@@H]2CC[C@@H](O)[C@H](OC)C2)CC(=O)[C@H](C)/C=C(\C)[C@H](O)[C@@H](OC)C(=O)[C@H](C)C[C@H](C)/C=C/C=C/C=C/1C [28-epi-7R-butanesulfonamide] ?
Reply: 7.96

Task item: So what does the record say about pIC50 for CO[C@@H]1C[C@H](C[C@@H](C)[C@@H]2CC(=O)[C@H](C)/C=C(\C)[C@H](O)[C@@H](OC)C(=O)[C@H](C)C[C@H](C)/C=C/C=C/C=C(\C)[C@@H](NC(=O)OCc3ccccc3)C[C@@H]3CC[C@@H](C)[C@@](O)(O3)C(=O)C(=O)N3CCCC[C@H]3C(=O)O2)CC[C@H]1O [28-epi-7S-benzylcarbamate] ?
Reply: 7.40

Task item: So what does the record say about pIC50 for COc1ccc(C2CC3CCC(C)C(O)(O3)C(=O)C(=O)N3CCCCC3C(=O)OC(C(C)CC3CCC(O)C(OC)C3)CC(=O)C(C)C=C(C)C(O)C(OC)C(=O)C(C)CC(C)C=CC=CC=C2C)c(OC)c1 (stereo not drawn) [28-epi-7R-dimethoxyphenyl] ?
Reply: 7.27

Task item: So what does the record say about pIC50 for COC1CC(CC(C)C2CC(=O)C(C)C=C(C)C(O)C(OC)C(=O)C(C)CC(C)C=CC=CC=C(C)C(N(C)C(=O)OCC(C)C)CC3CCC(C)C(O)(O3)C(=O)C(=O)N3CCCCC3C(=O)O2)CCC1O (single isomer, unassigned) [28-epi-7R-N-Me-isobutylcarbamate] ?
Reply: 6.96

---

# subject of test: transcriptional switch components containing FKBP and 2098L mutant FRB domains (Homo sapiens, UniProt P42345+P62942)
# Construct: transcriptional switchcomponents containing FKBP and 2098L mutant FRB domains, respectively; fused on or other part: The two switch components are separate chimeric proteins; Neither is given for this cell line
# assay explanation: transcription assay in engineered HD1080 cells expressing SEAP (txn 2098L)
# Assay type: cell-based
# condition notes: read-out: TXN 2098L EC50; cellular transcription assay, methods of Example 2.5
Assignment: determine reported EC50 for the given compounds.
Respond with the bare value in nM.

Task item: So what does the record say about EC50 for C=CCO[C@@H]1C[C@@H]2CC[C@@H](C)[C@@](O)(O2)C(=O)C(=O)N2CCCC[C@H]2C(=O)O[C@H]([C@H](C)C[C@@H]2CC[C@@H](O)[C@H](OC)C2)CC(=O)[C@H](C)/C=C(\C)[C@H](O)[C@@H](OC)C(=O)[C@H](C)C[C@H](C)/C=C/C=C/C=C/1C [28-epi-7R-allyloxy] ?
Reply: 25

Task item: So what does the record say about EC50 for CCN([C@@H]1C[C@@H]2CC[C@@H](C)[C@@](O)(O2)C(=O)C(=O)N2CCCC[C@H]2C(=O)O[C@H]([C@H](C)C[C@@H]2CC[C@@H](O)[C@H](OC)C2)CC(=O)[C@H](C)/C=C(\C)[C@H](O)[C@@H](OC)C(=O)[C@H](C)C[C@H](C)/C=C/C=C/C=C/1C)S(C)(=O)=O [28-epi-7R-N-Et-methanesulfonamide] ?
Reply: 8

Task item: So what does the record say about EC50 for CCN([C@H]1C[C@@H]2CC[C@@H](C)[C@@](O)(O2)C(=O)C(=O)N2CCCC[C@H]2C(=O)O[C@H]([C@H](C)C[C@@H]2CC[C@@H](O)[C@H](OC)C2)CC(=O)[C@H](C)/C=C(\C)[C@H](O)[C@@H](OC)C(=O)[C@H](C)C[C@H](C)/C=C/C=C/C=C/1C)S(C)(=O)=O [28-epi-7S-N-Et-methanesulfonamide] ?
Reply: 8
